TESTED_ON: 14-3-3γ (Homo sapiens, UniProt P61981)
Construct: made in house; host or cells: E. coli NiCo21 (DE3)
Sequence (P61981 whole entry): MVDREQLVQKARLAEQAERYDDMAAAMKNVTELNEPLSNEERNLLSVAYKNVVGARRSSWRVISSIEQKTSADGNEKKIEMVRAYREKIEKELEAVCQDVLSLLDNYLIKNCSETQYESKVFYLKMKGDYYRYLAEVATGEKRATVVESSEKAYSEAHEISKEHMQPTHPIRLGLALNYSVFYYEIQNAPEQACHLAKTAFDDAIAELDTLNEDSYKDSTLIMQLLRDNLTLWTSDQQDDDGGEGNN
PROTOCOL_NOTES: Fluorescence anisotropy (FA) binary binding study: 14-3-3 titrated to fluorescein-labelled peptide
MEASUREMENT_CONDITIONS: Table S4; ΔG minus ΔG of 1, FA; replicate 3
Where a SMILES comes first, the peptide text is derived from it. [ ]: non-standard residue; d: D form. ξ: configuration not given here. Phe(4-NO2) = N[C@@H](Cc1ccc([N+](=O)[O-])cc1)C(=O)O; ξAla(4-thiazolyl) = NC(Cc1cscn1)C(=O)O; pS = N[C@@H](COP(=O)(O)O)C(=O)O; β3hS = N[C@@H](CO)CC(=O)O; Nva = CCC[C@H](N)C(=O)O; βAla = NCCC(=O)O
Provide the reported ΔΔG to 1 of each item.
Give bare numbers, in kcal/mol.

Recorded results for 2 compounds are shown here.
COMPOUND: CCC[C@H](NC(=O)[C@H](N)CCCCN)C(=O)N[C@@H](Cc1ccc([N+](=O)[O-])cc1)C(=O)NC(Cc1cscn1)C(=O)N[C@@H](COP(=O)(O)O)C(=O)N[C@@H](C)C(=O)N[C@@H](CO)CC(=O)NCCC(=O)N[C@@H](Cc1ccc([N+](=O)[O-])cc1)C(=O)N[C@@H](CCCCN)C(N)=O (stereo partly drawn) [4c] (H-[dK][Nva][Phe(4-NO2)][ξAla(4-thiazolyl)][pS]A[β3hS][βAla][Phe(4-NO2)]K-NH2; N-terminus and C-terminus assumed)
ΔΔG to 1 / kcal/mol: 1.8

COMPOUND: CCC[C@H](NC(=O)[C@H](N)CCCCN)C(=O)N[C@@H](Cc1ccc([N+](=O)[O-])cc1)C(=O)NC(Cc1cscn1)C(=O)N[C@@H](COP(=O)(O)O)C(=O)N[C@@H](Cc1ccc([N+](=O)[O-])cc1)C(=O)N[C@@H](CO)CC(=O)NCCC(=O)N[C@@H](Cc1ccccc1)C(=O)N[C@@H](CCCCN)C(N)=O (stereo partly drawn) [5b] (H-[dK][Nva][Phe(4-NO2)][ξAla(4-thiazolyl)][pS][Phe(4-NO2)][β3hS][βAla]FK-NH2; N-terminus and C-terminus assumed)
ΔΔG to 1 / kcal/mol: 1.9

Hello, I would appreciate it if you could give ΔΔG to 1 for each entry below.
1. CCC[C@H](NC(=O)[C@H](N)CCCCN)C(=O)N[C@@H](Cc1ccc([N+](=O)[O-])cc1)C(=O)NC(Cc1cscn1)C(=O)N[C@@H](COP(=O)(O)O)C(=O)N[C@@H](Cc1ccccc1)C(=O)N[C@@H](CO)CC(=O)NCCC(=O)N[C@@H](Cc1ccc([N+](=O)[O-])cc1)C(=O)N[C@@H](CCCCN)C(N)=O (stereo partly drawn) [4b] (H-[dK][Nva][Phe(4-NO2)][ξAla(4-thiazolyl)][pS]F[β3hS][βAla][Phe(4-NO2)]K-NH2; N-terminus and C-terminus assumed)
2. CCC[C@H](NC(=O)[C@H](N)CCCCN)C(=O)N[C@@H](Cc1ccc([N+](=O)[O-])cc1)C(=O)NC(Cc1cscn1)C(=O)N[C@@H](COP(=O)(O)O)C(=O)N[C@@H](Cc1ccc([N+](=O)[O-])cc1)C(=O)N[C@@H](CO)CC(=O)NCCC(=O)N[C@@H](C)C(=O)N[C@@H](CCCCN)C(N)=O (stereo partly drawn) [5c] (H-[dK][Nva][Phe(4-NO2)][ξAla(4-thiazolyl)][pS][Phe(4-NO2)][β3hS][βAla]AK-NH2; N-terminus and C-terminus assumed)

[0.1, 2.2]

Would you kindly share the measured ΔΔG to 1 for CCC[C@H](NC(=O)[C@H](N)CCCCN)C(=O)N[C@@H](Cc1ccc([N+](=O)[O-])cc1)C(=O)NC(Cc1cscn1)C(=O)N[C@@H](COP(=O)(O)O)C(=O)N[C@@H](Cc1ccc([N+](=O)[O-])cc1)C(=O)N[C@@H](CO)CC(=O)NCCC(=O)N[C@@H](Cc1ccc(O)cc1)C(=O)N[C@@H](CCCCN)C(N)=O (stereo partly drawn) [5a] (H-[dK][Nva][Phe(4-NO2)][ξAla(4-thiazolyl)][pS][Phe(4-NO2)][β3hS][βAla]YK-NH2; N-terminus and C-terminus assumed) ?
1.8
